# pIC50 per record follows
Target: Nitric oxide synthase, inducible (Homo sapiens, UniProt P35228)
Sequence (P35228 whole entry): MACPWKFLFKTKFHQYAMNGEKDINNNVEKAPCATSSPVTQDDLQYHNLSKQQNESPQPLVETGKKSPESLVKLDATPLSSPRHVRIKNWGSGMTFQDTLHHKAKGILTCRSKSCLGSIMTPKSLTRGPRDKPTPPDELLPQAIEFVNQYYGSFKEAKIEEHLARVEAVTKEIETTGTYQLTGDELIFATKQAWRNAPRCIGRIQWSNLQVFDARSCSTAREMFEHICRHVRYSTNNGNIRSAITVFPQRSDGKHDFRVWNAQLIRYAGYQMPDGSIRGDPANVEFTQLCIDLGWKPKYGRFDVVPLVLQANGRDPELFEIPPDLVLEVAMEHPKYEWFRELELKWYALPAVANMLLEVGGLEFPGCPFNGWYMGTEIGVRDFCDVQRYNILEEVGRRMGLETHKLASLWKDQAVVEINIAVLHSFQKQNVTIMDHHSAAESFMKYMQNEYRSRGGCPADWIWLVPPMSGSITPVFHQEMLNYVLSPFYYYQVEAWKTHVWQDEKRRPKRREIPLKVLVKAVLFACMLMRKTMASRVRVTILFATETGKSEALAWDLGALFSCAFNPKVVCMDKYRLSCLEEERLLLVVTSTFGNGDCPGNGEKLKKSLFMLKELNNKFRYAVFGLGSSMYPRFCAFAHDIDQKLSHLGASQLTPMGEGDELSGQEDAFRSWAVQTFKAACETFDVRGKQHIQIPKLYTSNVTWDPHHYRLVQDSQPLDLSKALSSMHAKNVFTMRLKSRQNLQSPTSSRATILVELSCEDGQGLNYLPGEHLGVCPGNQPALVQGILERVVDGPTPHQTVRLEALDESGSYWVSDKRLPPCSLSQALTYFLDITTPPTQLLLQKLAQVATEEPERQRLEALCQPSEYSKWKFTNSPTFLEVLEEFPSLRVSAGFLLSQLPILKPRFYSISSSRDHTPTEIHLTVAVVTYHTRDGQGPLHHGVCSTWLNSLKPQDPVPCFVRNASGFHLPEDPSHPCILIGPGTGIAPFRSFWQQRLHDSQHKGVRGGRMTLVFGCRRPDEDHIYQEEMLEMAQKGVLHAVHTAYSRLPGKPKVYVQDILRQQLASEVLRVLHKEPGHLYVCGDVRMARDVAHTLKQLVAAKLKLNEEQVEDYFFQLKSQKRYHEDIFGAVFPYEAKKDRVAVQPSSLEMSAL
Assay: Inhibition of human recombinant iNOS expressed in Sf9 cells assessed as reduction in conversion of [3H]L-arginine to [3H]L-citrulline preincubated for 15 mins by radiometric method
pIC50: −log10 of the molar value.

Solved cases (2 shown):
# moleculeSmiles, pIC50
measured = [
    ("N=C(Nc1ccc2c(c1)CCCN2CCCNCCO)c1cccs1", "< 4.00"),
    ("CC(C)NCCN1CCCc2cc(NC(=N)c3cccs3)ccc21", 4.05),
]

Attention now turns to another entry.
Input line: // map `CNCCCN1CCCc2cc(NC(=N)c3cccs3)ccc21` to recorded pIC50 (system: Nitric oxide synthase, inducible (Homo sapiens, UniProt P35228))
Output line: < 4.00
